Test system: human platelet rich plasma (PRP)
PROTOCOL_NOTES: Inhibition of blood platelet aggregation in human platelet rich plasma (PRP), test of Professor Born, optical density
Type: cell-based
TEST_CONDITIONS: Platelet; aggregation induced by minimum amount of collagen; 0.45 ml human PRP; two separate tests, two donors; read-out: Aggregation IC50, Collagen
Counter-ions that a name gives are not always drawn.
EXPERIMENTAL_READOUT: IC50 (nM)
Numbers only, in nM.

{"MOLECULE": "CCCCC[C@H](O)/C=C/[C@@H]1[C@H]2C/C(=C/CCCC(=O)O)O[C@H]2C[C@H]1O [PGI2, reference compound]", "DATA_VALUE": 2}

Record CCCC[C@H](F)[C@H](O)CC[C@@H]1[C@@H]2[C@H](C[C@H]1O)O/C(=C\CCCC(=O)O)[C@H]2F [Compound B, monosodium salt] ; system human platelet rich plasma (PRP); IC50 = 6
